What EC50 was measured for each of the following?
# assay-info: Lactate dehydrogenase (LDH) release assay
# Format: cell-based
# condition-summary: LDH: Cytotoxicity assay: EC50
Positions of bridges follow the written chain, without caps; N, C: chain ends. Non-standard residues stand in square brackets, D forms with d. Residues, ends and D or L forms follow the SMILES beside them. Lys(N3) = [N-]=[N+]=NCCCC[C@H](N)C(=O)O; R8 = C=CCCCCCC[C@@](C)(N)C(=O)O; Cba = N[C@@H](CC1CCC1)C(=O)O; S5 = C=CCCC[C@](C)(N)C(=O)O; βAla = NCCC(=O)O; Sar = CNCC(=O)O

CC(=O)N[C@@H](CCCCN=[N+]=[N-])C(=O)NCCC(=O)N[C@@H](CC(C)C)C(=O)N[C@H](C(=O)N[C@@H](Cc1ccccc1)C(=O)N[C@]1(C)CCCCCCC=CCCC[C@@](C)(C(=O)N[C@@H](CO)C(=O)N[C@@H](C)C(=O)N(C)CC(N)=O)NC(=O)[C@H](CC2CCC2)NC(=O)[C@H](CCC(N)=O)NC(=O)[C@H](C)NC(=O)[C@H](Cc2c[nH]c3ccccc23)NC(=O)[C@H](Cc2ccc(O)cc2)NC(=O)[C@H](CCC(=O)O)NC1=O)[C@@H](C)O [MP-566] (Ac-[Lys(N3)][βAla]LTF[R8]EYWAQ[Cba][S5]SA[Sar]-NH2; staple 6-13) : > 50.6 µM

Please examine the following record next.
[in] Look up EC50 for this compound: CC(=O)N[C@@H](CCCCN=[N+]=[N-])C(=O)NCCC(=O)NCC(=O)N[C@H](C(=O)N[C@@H](Cc1ccccc1)C(=O)N[C@]1(C)CCCCCCC=CCCC[C@@](C)(C(=O)N[C@@H](CO)C(=O)N[C@@H](C)C(=O)N[C@@H](C)C(N)=O)NC(=O)[C@H](CC2CCC2)NC(=O)[C@H](CCC(N)=O)NC(=O)CNC(=O)[C@H](Cc2c[nH]c3ccccc23)NC(=O)[C@H](Cc2ccc(O)cc2)NC(=O)CNC1=O)[C@@H](C)O [MP-692] (Ac-[Lys(N3)][βAla]GTF[R8]GYWGQ[Cba][S5]SAA-NH2; staple 6-13)
[out] > 50.6 µM
